- System: NCI-H1975 cells (T790M and L858R EGFR mutations)
- PROTOCOL_DESCRIPTION: Cell growth inhibition (Cell Titer-Glo), NCI-H1975
- Assay type: cell-based
- STATED_CONDITIONS: Homo sapiens, 72 hours drug treatment, 0.03 nM to 100 nM
Where a name gives a salt, the structure may show the parent alone.
MEASURED_QUANTITY: log10(IC50) (log10 of the value in nM)

In [3]: df
Out[3]:
                                    molecule  measured_result
 0  C=CC(=O)Nc1cc(Nc2nccc(-c3nn(C(C)C)c4ccccc34)n2)c(OC)cc1N(C)CCN(C)C             1.42
 1  C=CC(=O)Nc1cc(Nc2nccc(-c3cn(S(=O)(=O)CC)c4ccccc34)n2)c(OC)cc1N(C)CCN(C)C             0.74
 2  C=CC(=O)Nc1cc(Nc2nccc(-c3cn(C)c4ccccc34)n2)c(OC)cc1N1CC(N2CCC2)C1             1.31
 3  [2H]C([2H])([2H])N(CCN(C)c1cc(OC)c(Nc2nccc(-n3c(=O)n(CC)c4ccccc43)n2)cc1NC(=O)C=C)C([2H])([2H])[2H]            -0.10
 4  C=CC(=O)Nc1cc(Nc2nccc(-c3cn(C)c4ccccc34)n2)c(OC)cc1N(CC)CCN(C)C             1.11
 5  C=CC(=O)Nc1cc(Nc2nccc(-n3c(=O)n(C4CC4)c4ccccc43)n2)c(OC)cc1N(C)CCN(C)C             0.87
 6  [2H]C([2H])([2H])N(CCN(C)C)c1cc(OC)c(Nc2nccc(-n3c(=O)n(C)c4ccccc43)n2)cc1NC(=O)C=C [59. (HCl)n]             0.11
 7  C=CC(=O)Nc1cc(Nc2nccc(N3CC(C)(C)c4ccccc43)n2)c(OC)cc1N(C)CCN(C)C             0.91
 8  [2H]C([2H])([2H])N(CCN(C)c1cc(OC)c(Nc2nccc(-c3cn(CC)c4ccccc34)n2)cc1NC(=O)C=C)C([2H])([2H])[2H]             0.43
 9  C=CC(=O)Nc1cc(Nc2nccc(-c3cn(C)c4ccccc34)n2)c(OC)cc1N(C)CCN1CCCC1             1.55
10  [2H]C([2H])([2H])N(CCN(C)c1cc(OC)c(Nc2nccc(-n3cc(C)c4ccccc43)n2)cc1NC(=O)C=C)C([2H])([2H])[2H] [63. (HCl)n]             0.68
11  C=CC(=O)Nc1cc(Nc2nccc(-n3c(=O)n(C)c4ccccc43)n2)c(OC)cc1N(C)CCN(C)C             0.11
12  C=CC(=O)Nc1cc(Nc2nccc(-n3c(=O)n(C(C)C)c4ccccc43)n2)c(OC)cc1N(C)CCN(C)C             0.67
13  C=CC(=O)Nc1cc(Nc2nccc(N3CCOc4ccccc43)n2)c(OC)cc1N(C)CCN(C)C             1.18
14  C=CC(=O)Nc1cc(Nc2nccc(-c3cn(CC(F)F)c4ccccc34)n2)c(OC)cc1N(C)CCN(C)C             1.20
15  [2H]C([2H])([2H])n1c(=O)n(-c2ccnc(Nc3cc(NC(=O)C=C)c(N(C)CCN(C)C)cc3OC)n2)c2ccccc21             0.28
16  C=CC(=O)Nc1cc(Nc2nccc(N3CCCc4ccccc43)n2)c(OC)cc1N(C)CCN(C)C             1.68
17  C=CC(=O)Nc1cc(Nc2nccc(-n3c(=O)[nH]c4ccccc43)n2)c(OC)cc1N(C)CCN(C)C            -0.10
18  [2H]C([2H])([2H])N(CCN(C)c1cc(OC)c(Nc2nccc(-c3cn(S(C)(=O)=O)c4ccccc34)n2)cc1NC(=O)C=C)C([2H])([2H])[2H]            -0.30
19  [2H]C([2H])([2H])N(CCN(C)c1cc(OC)c(Nc2nccc(-n3c(=O)n(C)c4ccccc43)n2)cc1NC(=O)C=C)C([2H])([2H])[2H] [58. (HCl)n]             0.20
20  C=CC(=O)Nc1cc(Nc2nccc(-c3cn(C)c4ccccc34)n2)c(OC)cc1N(C)CCN(C)CC             1.00
